Experiment: UV-Vis absorption spectra in MeOH
Type: physicochemical
quantity: ε Qx (1-0) (M⁻¹ cm⁻¹)

1) CC(=O)Nc1ccc(-c2c3nc(c(-c4ccc[n+]([O-])c4)c4ccc([nH]4)c(-c4ccc[n+]([O-])c4)c4nc(c(-c5ccc[n+]([O-])c5)c5ccc2[nH]5)C=C4)C=C3)cc1 :: 5800
2) CCCCCCCCCCCCCCCCCC(=O)Nc1ccc(-c2c3nc(c(-c4ccc[n+]([O-])c4)c4ccc([nH]4)c(-c4ccc[n+]([O-])c4)c4nc(c(-c5ccc[n+]([O-])c5)c5ccc2[nH]5)C=C4)C=C3)cc1 :: 4500
3) CCCCCCCCCCCCCC(=O)Nc1ccc(-c2c3nc(c(-c4ccc[n+]([O-])c4)c4ccc([nH]4)c(-c4ccc[n+]([O-])c4)c4nc(c(-c5ccc[n+]([O-])c5)c5ccc2[nH]5)C=C4)C=C3)cc1 :: 6000
4) CCCCCCCCCC(=O)Nc1ccc(-c2c3nc(c(-c4ccc[n+]([O-])c4)c4ccc([nH]4)c(-c4ccc[n+]([O-])c4)c4nc(c(-c5ccc[n+]([O-])c5)c5ccc2[nH]5)C=C4)C=C3)cc1 :: 4900

====

The following compounds are shown together with reported IC50 values.
Tested on: HDF
Assay: Photocytotoxicity, MTT assay
Format: cell-based, human
Conditions: 6 h incubation, red light 643 nm 30 min, 3.6 J/cm^2, normoxia; read-out: IC50 HDF No CoCl2
Expressed in µM, but write only the number.

Query: IC50; subject: CCCCCCCCCCCCCC(=O)Nc1ccc(-c2c3nc(c(-c4ccc[n+](C)c4)c4ccc([nH]4)c(-c4ccc[n+](C)c4)c4nc(c(-c5ccc[n+](C)c5)c5ccc2[nH]5)C=C4)C=C3)cc1 0.81

And the next one, CCCCCCCCCC(=O)Nc1ccc(-c2c3nc(c(-c4ccc[n+](C)c4)c4ccc([nH]4)c(-c4ccc[n+](C)c4)c4nc(c(-c5ccc[n+](C)c5)c5ccc2[nH]5)C=C4)C=C3)cc1 ? 7.09

====

Test: Laser flash photolysis (LFP), triplet excited state properties
Format: physicochemical
Conditions: MeOH, N2, 355 nm laser excitation, Figure S9 inset
quantity: t from transient absorption kinetics at 450 nm (µs)
Expressed in µs, but write only the number.

Query: t from transient absorption kinetics at 450 nm; subject: CCCCCCCCCCCCCCCCCC(=O)Nc1ccc(-c2c3nc(c(-c4ccc[n+]([O-])c4)c4ccc([nH]4)c(-c4ccc[n+]([O-])c4)c4nc(c(-c5ccc[n+]([O-])c5)c5ccc2[nH]5)C=C4)C=C3)cc1 987

====

Assay: UV-Vis absorption spectra in MeOH
Assay type: physicochemical
quantity: ε Qy (1-0) (M⁻¹ cm⁻¹)

1. CCCCCCCCCC(=O)Nc1ccc(-c2c3nc(c(-c4ccc[n+]([O-])c4)c4ccc([nH]4)c(-c4ccc[n+]([O-])c4)c4nc(c(-c5ccc[n+]([O-])c5)c5ccc2[nH]5)C=C4)C=C3)cc1 :: 15400
2. CCCCCCCCCCCCCC(=O)Nc1ccc(-c2c3nc(c(-c4ccc[n+]([O-])c4)c4ccc([nH]4)c(-c4ccc[n+]([O-])c4)c4nc(c(-c5ccc[n+]([O-])c5)c5ccc2[nH]5)C=C4)C=C3)cc1 :: 19300
3. CC(=O)Nc1ccc(-c2c3nc(c(-c4ccc[n+]([O-])c4)c4ccc([nH]4)c(-c4ccc[n+]([O-])c4)c4nc(c(-c5ccc[n+]([O-])c5)c5ccc2[nH]5)C=C4)C=C3)cc1 :: 18200
4. CCCCCCCCCCCCCCCCCC(=O)Nc1ccc(-c2c3nc(c(-c4ccc[n+]([O-])c4)c4ccc([nH]4)c(-c4ccc[n+]([O-])c4)c4nc(c(-c5ccc[n+]([O-])c5)c5ccc2[nH]5)C=C4)C=C3)cc1 :: 15000
